Assay: basal RPMI8226 viability, no added stimulus, profiling panel, cell-based, calcein-AM fluorescence, 48 h, PK04 Diversity Set (AID 1166);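 further: cells grown under basal conditions without added stimulus; test concentration not given here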
Settings: RPMI8226 myeloma viability, higher = more signal
Readout Kind: z-score

Molecule: CC[C@@H](c1ccccc1)n1c(=O)n2n(c1=O)[C@H]1[C@H](O)[C@@H]3O[C@@H]3C(=NOC[C@@H](O)COCc3ccco3)[C@H]1CC2
Reported: -0.736
//
Molecule: COC(=O)[C@H](C)NC(=O)CCC1CC(OC(=O)NCc2ccc3c(c2)OCO3)CC2(CCCC(COC(=O)NCCc3ccccc3OC)O2)O1 (some centres undefined)
Reported: -1.56
//
Molecule: CCOC(=O)[C@H](CC(C)C)NC(=O)CCC1CC(OC(=O)NCc2cccc3ccccc23)CC2(CCCC(COC(=O)NCc3cccc(C(F)(F)F)c3)O2)O1 (some centres undefined)
Reported: 0.38

Attention now shifts to the item below.
[in] Output measured z-score for this item: CO[C@@H]1COC(=O)[C@@H]2CCCN2C(=O)[C@@H](C)COC(=O)CC=C[C@H]1C
[out] -0.748

----------
Assay: Plasmodium falciparum growth inhibition, primary screen, strain 3D7, DAPI fluorescence, 100 nL (AID 1184);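 further: parasites grown inside human red blood cells in medium with human serum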
Conditions: P. falciparum 3D7 growth, 3 d, higher = more signal
Listed here are molecules together with their documented z-score.
Enter a number only.

Example molecules with recorded z-score:
Molecule: O=C1C[C@@H](O)[C@@H](O)[C@@H]2[C@@H]3C(=O)N(c4cccc(Oc5ccccc5)c4)C(=O)[C@@H]3CC[C@H]12
z-score: 1.33

Molecule: CC(C)=CCCC(C)=CCON=C1C[C@@H](O)[C@@H](O)[C@@H]2[C@@H]3C(=O)N(C[C@@H]4CCCO4)C(=O)[C@@H]3CC[C@H]12
z-score: -0.0721

Molecule: CO[C@H]1COC(=O)[C@H](C)NC(=O)[C@@H](C)COC(=O)[C@H]2CCCN2C(=O)CC=C[C@H]1C
z-score: 0.43

Molecule: CCOC(=O)[C@H](Cc1ccccc1)NC(=O)CCC1CC(OC(=O)NCCc2ccc(F)cc2)CC2(CCCC(COC(=O)NCCc3ccc(Cl)cc3)O2)O1 (stereo not given in full)
z-score: -1.84

Molecule: CCOC(=O)[C@H](Cc1ccccc1)NC(=O)CCC1CC(OC(=O)NCc2cccc3ccccc23)CC2(CCCC(COC(=O)NCCC(C)C)O2)O1 (stereo not given in full)
z-score: 0.0857

Molecule: COC(=O)C=CCCc1coc(C=CCNC(=O)OC)n1
z-score: -0.92

Molecule: COc1cccc([C@H]2Oc3ccc(OC)cc3C(=NOC[C@@H](O)[C@H]3O[C@@H]4OC(C)(C)O[C@@H]4[C@H]3O)[C@@H]2O)c1
z-score: 0.187

Molecule: CCOC(=O)[C@H](CC(C)C)NC(=O)CCC1CC(OC(=O)NCCc2ccc(F)cc2)CC2(CCCC(COC(=O)NCCC(C)C)O2)O1 (stereo not given in full)
z-score: -0.329

Molecule: COC(=O)[C@@H]1CC[C@H](C)[C@@H](c2ccc(C)cc2)N1C(=O)c1ccc(C=NO[C@@H](C)c2cn([C@H](CO)Cc3ccccc3)nn2)cc1
z-score: -0.309

Molecule: COc1ccc(COC(=O)NN=C2C[C@@H](O)[C@@H](O)[C@@H]3[C@@H]4C(=O)N(Cc5ccccc5)C(=O)[C@@H]4CC[C@H]23)cc1
z-score: 0.908

Attention now shifts to the item below.
[in] Output measured z-score for this item: CC(=O)Nc1ccc([C@@H]2N[C@H](C(=O)O)CC[C@H]2C)cc1
[out] 0.962
